Biological target: human SGLT2 (Homo sapiens, UniProt P31639, I433V)
Sequence (P31639 whole entry I433V): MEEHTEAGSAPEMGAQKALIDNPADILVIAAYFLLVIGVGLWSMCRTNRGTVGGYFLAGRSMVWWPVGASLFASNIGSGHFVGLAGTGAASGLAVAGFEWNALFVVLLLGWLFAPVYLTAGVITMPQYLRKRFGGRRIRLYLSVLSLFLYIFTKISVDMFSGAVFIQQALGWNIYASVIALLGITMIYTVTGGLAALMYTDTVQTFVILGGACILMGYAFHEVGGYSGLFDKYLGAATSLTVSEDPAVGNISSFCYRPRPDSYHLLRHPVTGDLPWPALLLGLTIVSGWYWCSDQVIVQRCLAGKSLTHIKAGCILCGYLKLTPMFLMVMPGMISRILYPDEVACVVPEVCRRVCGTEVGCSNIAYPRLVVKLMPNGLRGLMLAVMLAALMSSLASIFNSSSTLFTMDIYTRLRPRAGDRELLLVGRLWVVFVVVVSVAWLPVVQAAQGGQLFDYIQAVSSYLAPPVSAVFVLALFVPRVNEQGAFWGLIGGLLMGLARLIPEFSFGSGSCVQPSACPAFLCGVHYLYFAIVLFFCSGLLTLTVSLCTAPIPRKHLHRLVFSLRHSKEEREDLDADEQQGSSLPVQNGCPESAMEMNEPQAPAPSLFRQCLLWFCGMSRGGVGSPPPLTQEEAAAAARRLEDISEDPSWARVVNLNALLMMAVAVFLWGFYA
Experiment: Assay for inhibitory effect on human SGLT2 activity (methyl-α-D-glucopyranoside uptake in COS-7 cells transiently expressing human SGLT2)
Settings: inhibition of methyl-α-D-glucopyranoside uptake, COS-7 cells expressing human SGLT2, 37° C., 2 hours
Procedure: Assay for Inhibitory Effect on Human SGLT2 Activity 1) Construction of the Plasmid Vector Expressing Human SGLT2 Preparation of the cDNA library for PCR amplification was performed by reverse transcription of a total RNA deprived from human kidney (Ori gene) with oligo dT as the primer, using SUPERSCRIPT Preamplification System (Gibco-BRL: LIFE TECHNOLOGIES). […]
pIC50: −log10 of the molar value.
# pIC50 values compiled below
REPORTED ENDPOINT: pIC50

>  <COMPOUND>
CCCc1ccc(Cc2c(O[C@@H]3O[C@H](CO)[C@@H](O)[C@H](O)[C@H]3O)n[nH]c2C)cc1 [Reference Example 38]

>  <REPORTED ENDPOINT>
pIC50

>  <INEQUALITY OPERATOR>
=

>  <VALUE>
6.36

$$$$
>  <COMPOUND>
CSc1ccc(Cc2c(O[C@@H]3O[C@H](CO)[C@@H](O)[C@H](O)[C@H]3O)n[nH]c2C(F)(F)F)cc1 [Reference Example 48]

>  <REPORTED ENDPOINT>
pIC50

>  <INEQUALITY OPERATOR>
=

>  <VALUE>
6.17

$$$$
>  <COMPOUND>
CSc1ccc(Cc2c(C(F)(F)F)[nH][nH]c2=O)cc1 [WAY-123783, reference compound]

>  <REPORTED ENDPOINT>
pIC50

>  <INEQUALITY OPERATOR>
<

>  <VALUE>
4.00

$$$$
>  <COMPOUND>
CCc1ccc(Cc2c(O[C@@H]3O[C@H](CO)[C@@H](O)[C@H](O)[C@H]3O)n[nH]c2C(F)(F)F)cc1 [Reference Example 60]

>  <REPORTED ENDPOINT>
pIC50

>  <INEQUALITY OPERATOR>
=

>  <VALUE>
6.20

$$$$
>  <COMPOUND>
CCc1[nH]nc(O[C@@H]2O[C@H](CO)[C@@H](O)[C@H](O)[C@H]2O)c1Cc1ccc(SC)cc1 [Reference Example 46]

>  <REPORTED ENDPOINT>
pIC50

>  <INEQUALITY OPERATOR>
=

>  <VALUE>
6.29

$$$$
